biological target: motilin receptor (Oryctolagus cuniculus, UniProt G1T803)
Sequence (G1T803 1-400): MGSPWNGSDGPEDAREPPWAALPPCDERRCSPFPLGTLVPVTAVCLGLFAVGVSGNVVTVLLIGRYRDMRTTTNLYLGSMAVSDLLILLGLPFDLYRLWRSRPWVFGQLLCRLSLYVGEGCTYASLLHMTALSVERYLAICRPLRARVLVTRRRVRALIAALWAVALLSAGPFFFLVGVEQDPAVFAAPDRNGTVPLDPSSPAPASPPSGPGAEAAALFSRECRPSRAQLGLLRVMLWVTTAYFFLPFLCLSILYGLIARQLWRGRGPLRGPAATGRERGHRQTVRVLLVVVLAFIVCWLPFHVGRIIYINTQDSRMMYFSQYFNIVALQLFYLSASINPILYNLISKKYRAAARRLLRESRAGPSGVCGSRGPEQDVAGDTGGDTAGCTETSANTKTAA
pIC50: −log10 of the molar value. Where a SMILES comes first, the peptide text is derived from it. [ ]: non-standard residue; d: D form. NMeTyr(3-tBu) = CN[C@@H](Cc1ccc(O)c(C(C)(C)C)c1)C(=O)O; Tyr(3-tBu) = CC(C)(C)c1cc(C[C@H](N)C(=O)O)ccc1O; NMePhe(4-F) = CN[C@@H](Cc1ccc(F)cc1)C(=O)O; Tyr(3-F) = N[C@@H](Cc1ccc(O)c(F)c1)C(=O)O; Phe(4-F) = N[C@@H](Cc1ccc(F)cc1)C(=O)O; NMe2Thi = CN[C@@H](Cc1cccs1)C(=O)O; NMeV = CN[C@H](C(=O)O)C(C)C
readout type: pIC50

Reference set, count: 3
CN[C@@H](Cc1ccc(F)cc1)C(=O)N(C)[C@H](C(=O)N[C@@H](Cc1ccc(O)c(C(C)(C)C)c1)C(=O)NCO)C(C)C = 9.15
CNC(=O)[C@H](Cc1ccc(O)c(C(C)(C)C)c1)NC(=O)[C@H](C(C)C)N(C)C(=O)[C@@H](N)Cc1ccc(F)cc1 [Example 31, Phe(4-F)-N-Me-Val-Tyr(3-tBu)-NHMe] (H-[Phe(4-F)]-[NMeV]-[Tyr(3-tBu)]-NHMe) = 9.10
CC(C)[C@@H](C(=O)N(C)[C@@H](Cc1ccc(O)c(C(C)(C)C)c1)C(N)=O)N(C)C(=O)[C@@H](N)Cc1ccc(O)c(F)c1 [Example 27, Tyr(3-F)-N-Me-Val-N-Me-Tyr(3-tBu)-NH2] (H-[Tyr(3-F)]-[NMeV]-[NMeTyr(3-tBu)]-NH2) = 8.92

I: CN(C(=O)[C@@H](N)Cc1ccc(F)cc1)[C@@H](Cc1cccs1)C(=O)N(C)[C@@H](Cc1ccc(O)c(C(C)(C)C)c1)C(N)=O [Example 163] (H-[Phe(4-F)]-[NMe2Thi]-[NMeTyr(3-tBu)]-NH2)
II: CNC(=O)[C@H](Cc1ccc(O)c(C(C)(C)C)c1)N(C)C(=O)[C@H](C(C)C)N(C)C(=O)[C@H](Cc1ccc(F)cc1)NC [Example 37] (H-[NMePhe(4-F)]-[NMeV]-[NMeTyr(3-tBu)]-NHMe)
// select label with min value of measured pIC50 from [ I , II ] # reply format: chosen label I
(I: 8.62, II: 9.22)

---

target: motilin receptor (Oryctolagus cuniculus, UniProt G1T803)
pIC50: −log10 of the molar value. Where a SMILES comes first, the peptide text is derived from it. [ ]: non-standard residue; d: D form. The star is where a group is joined. NMeTyr(3-tBu) = CN[C@@H](Cc1ccc(O)c(C(C)(C)C)c1)C(=O)O; Phe(4-F) = N[C@@H](Cc1ccc(F)cc1)C(=O)O; NMeF = CN[C@@H](Cc1ccccc1)C(=O)O; NMeV = CN[C@H](C(=O)O)C(C)C; Morpholide = C1CN(*)CCO1
readout type: pIC50

CC(C)[C@@H](C(=O)N(C)[C@@H](Cc1ccc(O)c(C(C)(C)C)c1)C(N)=O)N(C)C(=O)[C@@H](N)Cc1ccc(O)cc1F = 8.14
CN(C(=O)[C@@H](N)Cc1ccc(F)cc1)[C@@H](Cc1ccccc1)C(=O)N(C)[C@@H](Cc1ccc(O)c(C(C)(C)C)c1)C(N)=O [Example 155, Phe(4-F)-N-Me-Phe-N-Me-Tyr(3-tBu)-NH2] (H-[Phe(4-F)]-[NMeF]-[NMeTyr(3-tBu)]-NH2) = 8.60
CCN(C(=O)[C@H](C(C)C)N(C)C(=O)[C@H](Cc1ccc(F)cc1)NC)[C@@H](Cc1ccc(O)c(C(C)(C)C)c1)C(N)=O = 8.80
CNC(=O)[C@H](Cc1ccc(O)c(C(C)(C)C)c1)N(C)C(=O)[C@H](C(C)C)N(C)C(=O)[C@@H](N)Cc1ccc(F)cc1 [Example 36, Phe(4-F)-N-Me-Val-N-Me-Tyr(3-tBu)-NHMe] (H-[Phe(4-F)]-[NMeV]-[NMeTyr(3-tBu)]-NHMe) = 8.64

I: CCNC(=O)[C@H](Cc1ccc(O)c(C(C)(C)C)c1)N(C)C(=O)[C@H](C(C)C)N(C)C(=O)[C@H](Cc1ccc(F)cc1)NCC
II: CC(C)[C@@H](C(=O)N(C)[C@@H](Cc1ccc(O)c(C(C)(C)C)c1)C(=O)N1CCOCC1)N(C)C(=O)[C@@H](N)Cc1ccc(F)cc1 [Example 133] (H-[Phe(4-F)]-[NMeV]-[NMeTyr(3-tBu)]-Morpholide)
III: CCNC(=O)[C@H](Cc1ccc(O)c(C(C)(C)C)c1)N(C)C(=O)[C@H](C(C)C)N(C)C(=O)[C@@H](N)Cc1ccc(F)cc1 [Example 104, Phe(4-F)-N-Me-Val-N-Me-Tyr(3-tBu)-NHEt] (H-[Phe(4-F)]-[NMeV]-[NMeTyr(3-tBu)]-NHEt)
// ascending sort on recorded pIC50 API: response body holds the labels in the requested order. II, I, III
(II: 8.96, I: 9.21, III: 9.49)

---

target: motilin receptor (Oryctolagus cuniculus)
Where a SMILES comes first, the peptide text is derived from it. [ ]: non-standard residue; d: D form. The star is where a group is joined. NMeTyr(3-tBu) = CN[C@@H](Cc1ccc(O)c(C(C)(C)C)c1)C(=O)O; Tyr(3-tBu) = CC(C)(C)c1cc(C[C@H](N)C(=O)O)ccc1O; Phe(4-Cl) = N[C@@H](Cc1ccc(Cl)cc1)C(=O)O; Phe(4-F) = N[C@@H](Cc1ccc(F)cc1)C(=O)O; NMeGly(cPr) = CN[C@H](C(=O)O)C1CC1; NMeV = CN[C@H](C(=O)O)C(C)C; NHPr = CCCN*
readout type: IC50 (nM)

CC(C)[C@@H](C(=O)N[C@@H](Cc1ccc(O)c(C(C)(C)C)c1)C(N)=O)N(C)C(=O)[C@@H](N)Cc1ccc(F)cc1 [Example 28, Phe(4-F)-N-Me-Val-Tyr(3-tBu)-NH2] (H-[Phe(4-F)]-[NMeV]-[Tyr(3-tBu)]-NH2) = 0.52

I: CC(C)[C@@H](C(=O)N(C)[C@@H](Cc1ccc(O)c(C(C)(C)C)c1)C(N)=O)N(C)C(=O)[C@@H](N)Cc1ccc(Cl)cc1 [Example 2, Phe(4-Cl)-N-Me-Val-N-Me-Tyr(3-tBu)-NH2] (H-[Phe(4-Cl)]-[NMeV]-[NMeTyr(3-tBu)]-NH2)
II: CCCNC(=O)[C@H](Cc1ccc(O)c(C(C)(C)C)c1)NC(=O)[C@H](C(C)C)N(C)C(=O)[C@@H](N)Cc1ccc(F)cc1 [Example 119, Phe(4-F)-N-Me-Val-Tyr(3-tBu)-NH-n-Pr] (H-[Phe(4-F)]-[NMeV]-[Tyr(3-tBu)]-NHPr)
III: CN(C(=O)[C@@H](N)Cc1ccc(F)cc1)[C@H](C(=O)N(C)[C@@H](Cc1ccc(O)c(C(C)(C)C)c1)C(N)=O)C1CC1 [Example 165] (H-[Phe(4-F)]-[NMeGly(cPr)]-[NMeTyr(3-tBu)]-NH2)
# desc sort on IC50 across 3 compounds API: response body holds the labels in the requested order. III, I, II

# credit: patent US7553969B1
